ASSAYED_SYSTEM: BRM (Homo sapiens, UniProt P51531)
Sequence (P51531 whole entry): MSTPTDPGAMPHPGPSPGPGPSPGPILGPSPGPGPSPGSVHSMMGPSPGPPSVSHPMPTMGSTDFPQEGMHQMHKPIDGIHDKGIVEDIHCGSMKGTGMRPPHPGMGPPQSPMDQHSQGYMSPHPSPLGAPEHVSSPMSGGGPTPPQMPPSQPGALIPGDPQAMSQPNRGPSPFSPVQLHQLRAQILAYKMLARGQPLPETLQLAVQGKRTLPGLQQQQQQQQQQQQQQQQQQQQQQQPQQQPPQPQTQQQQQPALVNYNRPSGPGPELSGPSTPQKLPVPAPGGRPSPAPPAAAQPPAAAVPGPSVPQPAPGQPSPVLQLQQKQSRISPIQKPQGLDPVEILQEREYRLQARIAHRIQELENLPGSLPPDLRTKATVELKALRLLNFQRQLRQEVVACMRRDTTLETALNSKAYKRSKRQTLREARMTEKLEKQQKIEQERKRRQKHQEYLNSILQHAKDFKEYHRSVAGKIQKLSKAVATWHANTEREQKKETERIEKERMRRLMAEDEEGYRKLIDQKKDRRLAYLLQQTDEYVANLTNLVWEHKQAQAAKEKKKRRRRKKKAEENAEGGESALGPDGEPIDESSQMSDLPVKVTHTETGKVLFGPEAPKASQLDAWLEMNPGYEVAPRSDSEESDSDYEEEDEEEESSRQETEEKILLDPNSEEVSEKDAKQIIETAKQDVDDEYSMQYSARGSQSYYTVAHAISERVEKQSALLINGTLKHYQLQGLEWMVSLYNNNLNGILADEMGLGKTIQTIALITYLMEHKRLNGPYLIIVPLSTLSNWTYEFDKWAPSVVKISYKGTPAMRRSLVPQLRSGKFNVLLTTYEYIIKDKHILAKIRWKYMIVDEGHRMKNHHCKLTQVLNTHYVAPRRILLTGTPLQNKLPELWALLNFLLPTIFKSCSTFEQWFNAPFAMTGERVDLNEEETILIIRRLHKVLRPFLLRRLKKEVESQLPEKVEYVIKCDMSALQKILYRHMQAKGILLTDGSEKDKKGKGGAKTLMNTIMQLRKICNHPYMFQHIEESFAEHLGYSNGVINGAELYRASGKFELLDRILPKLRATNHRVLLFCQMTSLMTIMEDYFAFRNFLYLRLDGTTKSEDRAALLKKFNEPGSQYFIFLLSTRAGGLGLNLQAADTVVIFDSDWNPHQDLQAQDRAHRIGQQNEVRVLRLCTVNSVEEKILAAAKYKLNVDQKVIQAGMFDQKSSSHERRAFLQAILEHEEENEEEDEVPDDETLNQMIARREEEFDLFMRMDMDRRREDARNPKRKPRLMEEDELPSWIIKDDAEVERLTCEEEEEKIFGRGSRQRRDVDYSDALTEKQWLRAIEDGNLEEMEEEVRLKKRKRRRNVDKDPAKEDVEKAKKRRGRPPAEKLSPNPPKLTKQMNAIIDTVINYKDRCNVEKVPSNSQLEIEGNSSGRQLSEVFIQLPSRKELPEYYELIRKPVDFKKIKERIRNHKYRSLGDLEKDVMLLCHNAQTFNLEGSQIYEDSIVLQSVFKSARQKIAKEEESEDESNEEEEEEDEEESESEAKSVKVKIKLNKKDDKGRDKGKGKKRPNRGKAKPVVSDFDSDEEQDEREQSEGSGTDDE
PROTOCOL_DESCRIPTION: ATPase catalytic activity assay of BRM (ADP-Glo)
Assay type: biochemical
EXPERIMENTAL_CONTEXT: read-out: BRM IC50 (μM)*
Field: IC50. Provide a value for each of the compounds that follow.

STRUCTURE_SMILES_STRING	QUANTITY_MEASURED	MEASURED_RESULT
C[C@@H]1CN(c2cccc(-c3csc(NC(=O)CNC(=O)c4cccc(C5(F)COC5)c4)n3)c2)C[C@H](C)O1	IC50	0.1 to 1 µM

Quick request: IC50 for each listed item, please.
1. Cn1ccc(-c2cccc(-c3csc(NC(=O)CNC(=O)c4cccc(C(C)(C)CN)c4)n3)c2)n1
2. C[C@@]1(C#N)COCc2ccc(C(=O)NCC(=O)Nc3nc(-c4ccccc4)cs3)cc21
3. C[C@@H]1CN(c2cc(F)cc(-c3csc(NC(=O)CNC(=O)c4ccc(F)c(C(C)(C)CO)c4)n3)c2)C[C@H](C)O1

Reply:
0.1 to 1 µM
< 0.1 µM
< 0.1 µM

* * *

ASSAYED_SYSTEM: BRG-1 (Homo sapiens, UniProt P51532)
Sequence (P51532 whole entry): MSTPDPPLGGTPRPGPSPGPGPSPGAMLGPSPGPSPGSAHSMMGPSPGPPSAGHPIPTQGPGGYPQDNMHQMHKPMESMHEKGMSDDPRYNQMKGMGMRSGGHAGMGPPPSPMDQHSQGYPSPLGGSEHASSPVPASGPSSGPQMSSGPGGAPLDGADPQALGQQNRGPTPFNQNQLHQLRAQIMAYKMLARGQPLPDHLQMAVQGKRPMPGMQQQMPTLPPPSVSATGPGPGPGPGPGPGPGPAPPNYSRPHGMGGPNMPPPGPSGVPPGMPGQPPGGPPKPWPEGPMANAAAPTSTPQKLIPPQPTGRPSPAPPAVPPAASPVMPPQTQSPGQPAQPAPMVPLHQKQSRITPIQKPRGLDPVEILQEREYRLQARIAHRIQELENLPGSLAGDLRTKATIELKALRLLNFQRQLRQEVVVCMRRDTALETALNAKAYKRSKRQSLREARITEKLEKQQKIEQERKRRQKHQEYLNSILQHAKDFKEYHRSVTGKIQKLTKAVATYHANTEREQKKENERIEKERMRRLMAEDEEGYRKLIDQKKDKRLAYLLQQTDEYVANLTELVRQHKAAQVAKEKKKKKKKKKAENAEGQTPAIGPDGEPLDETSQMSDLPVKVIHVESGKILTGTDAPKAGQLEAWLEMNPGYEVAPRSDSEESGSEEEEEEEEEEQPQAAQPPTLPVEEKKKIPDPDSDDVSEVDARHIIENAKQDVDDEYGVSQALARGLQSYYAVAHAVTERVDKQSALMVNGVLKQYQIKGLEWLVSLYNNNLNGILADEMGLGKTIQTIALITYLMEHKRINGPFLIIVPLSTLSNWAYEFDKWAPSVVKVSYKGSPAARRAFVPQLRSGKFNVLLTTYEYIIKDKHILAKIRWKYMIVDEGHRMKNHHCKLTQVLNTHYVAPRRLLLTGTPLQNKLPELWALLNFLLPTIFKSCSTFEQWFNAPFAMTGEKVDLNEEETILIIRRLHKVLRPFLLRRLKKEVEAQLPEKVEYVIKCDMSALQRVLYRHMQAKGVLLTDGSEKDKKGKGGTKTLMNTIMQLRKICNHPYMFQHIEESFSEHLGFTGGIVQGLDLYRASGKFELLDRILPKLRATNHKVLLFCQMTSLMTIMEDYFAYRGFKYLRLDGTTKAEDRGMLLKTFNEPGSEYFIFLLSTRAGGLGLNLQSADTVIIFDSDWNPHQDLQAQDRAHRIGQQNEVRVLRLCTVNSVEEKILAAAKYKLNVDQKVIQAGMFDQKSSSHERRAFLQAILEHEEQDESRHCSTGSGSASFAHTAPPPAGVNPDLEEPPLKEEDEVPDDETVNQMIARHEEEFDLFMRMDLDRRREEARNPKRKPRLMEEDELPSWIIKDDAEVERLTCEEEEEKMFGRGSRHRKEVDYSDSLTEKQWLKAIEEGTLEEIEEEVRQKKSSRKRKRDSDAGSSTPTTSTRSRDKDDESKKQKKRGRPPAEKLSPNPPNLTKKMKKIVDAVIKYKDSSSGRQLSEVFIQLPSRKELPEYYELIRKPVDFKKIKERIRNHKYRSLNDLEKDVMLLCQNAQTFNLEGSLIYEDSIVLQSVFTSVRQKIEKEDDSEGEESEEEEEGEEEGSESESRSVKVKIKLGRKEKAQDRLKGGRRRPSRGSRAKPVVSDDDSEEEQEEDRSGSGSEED
PROTOCOL_DESCRIPTION: ATPase catalytic activity assay of BRG-1 (ADP-Glo)
Type: biochemical
EXPERIMENTAL_CONTEXT: ATPase catalytic activity, ADP-Glo, 30 nM BRG-1, 400 μM ATP; read-out: BRG1 IC50 (μM)*
QUANTITY_MEASURED: IC50

A selection of reference data follows.
COMPOUND	IC50
CC1(C#N)CCOc2ccc(C(=O)NCC(=O)Nc3nc(-c4cccc(C(F)F)n4)cs3)cc21 (stereo in doubt) [Compound 430]	1 to 5 µM
C[C@@H]1CN(c2cccc(-c3csc(NC(=O)CNC(=O)c4ccnc(C(C)(C#N)CO)c4)n3)c2)C[C@H](C)O1 (stereo in doubt) [Compound 427]	> 5 µM
CC1(C#N)CCOc2ccc(C(=O)NCC(=O)Nc3nc(-c4cccc(N5CCC5)c4)cs3)cc21 (stereo in doubt) [Compound 416]	0.1 to 1 µM

Quick request: IC50 for each listed item, please.
1. C[C@@H]1CN(c2cccc(-c3csc(NC(=O)CNC(=O)c4ccc5c(c4)C(C)(C#N)COC5)n3)n2)C[C@H](C)O1 (stereo in doubt) [Compound 420]
2. C[C@@H]1CN(c2cccc(-c3csc(NC(=O)[C@H](C)NC(=O)c4ccnc(C(C)(C)C)c4)n3)c2)C[C@H](C)O1 [Compound 435]
3. Cc1cncc(-c2cccc(-c3csc(NC(=O)CNC(=O)c4ccc5c(c4)C(C)(CO)CC5)n3)c2)n1 (stereo in doubt) [Compound 432]
4. COC[C@H](NC(=O)c1ccnc(C(C)(C)C)c1)C(=O)Nc1nc(-c2cccc(N3C[C@@H](C)O[C@@H](C)C3)c2)cs1 [Compound 436]

Reply:
["< 0.1 µM", "1 to 5 µM", "0.1 to 1 µM", "1 to 5 µM"]

Quick request: IC50 for each listed item, please.
1. C[C@@H]1CN(c2cccc(-c3csc(NC(=O)CNC(=O)c4cccc(C5(C(F)F)COC5)c4)n3)c2)C[C@H](C)O1 [Compound 419]
2. Cn1ccc2ccc(-c3csc(NC(=O)CNC(=O)c4ccc5c(c4)[C@@](C)(C#N)CCO5)n3)cc2c1=O [Compound 433]
3. C[C@@H]1CN(c2cccc(-c3csc(NC(=O)CNC(=O)c4cccc([C@@]5(C)COC[C@@H]5O)c4)n3)n2)C[C@H](C)O1 (stereo in doubt) [Compound 413]

Reply:
1. 0.1 to 1 µM
2. 0.1 to 1 µM
3. 1 to 5 µM

Quick request: IC50 for each listed item, please.
1. C[C@@H]1CN(c2cccc(-c3csc(NC(=O)CNC(=O)c4ccc5c(c4)C(C)(C#N)COC5)n3)n2)C[C@H](C)O1 (stereo in doubt) [Compound 421]
2. CO[C@H]1C[C@@](F)(c2cccc(C(=O)NCC(=O)Nc3nc(-c4cccc(N5C[C@@H](C)O[C@@H](C)C5)n4)cs3)c2)C1 [Compound 426]

Reply:
> 5 µM
1 to 5 µM

* * *

Field: BRM Max % Inhibition. Provide a value for each of the molecules that follow.
ASSAYED_SYSTEM: BRM (Homo sapiens, UniProt P51531)
PROTOCOL_DESCRIPTION: ATPase catalytic activity assay of BRM (ADP-Glo)
Assay type: biochemical

A selection of reference data follows.
MOLECULE	BRM Max % Inhibition
CC(=O)N(C)c1cc(-c2cccc(-c3csc(NC(=O)CNC(=O)c4cccc(C(C)(C)CN)c4)n3)c2)ccn1 [Compound 56]	>90%
C[C@@H]1CN(c2cccc(-c3csc(NC(=O)CNC(=O)c4ccc5c(c4)[C@@](C)(CO)CO5)n3)n2)C[C@H](C)O1 (single isomer, unassigned) [Compound 133]	>95%
C[C@@H]1CN(c2cccc(-c3csc(NC(=O)CNC(=O)c4cccc([C@]5(F)C[C@@](C)(O)C5)c4)n3)c2)C[C@H](C)O1 [Compound 317]	>95%
Cc1cncc(-c2cccc(-c3csc(NC(=O)CNC(=O)c4ccc5c(c4)[C@](C)(CO)CC5)n3)n2)n1 [Compound 163]	>90%
C[C@@H]1CN(c2cccc(-c3csc(NC(=O)CNC(=O)c4ccc5c(c4)[C@H](CO)CC5)n3)n2)C[C@H](C)O1 [Compound 162]	>70%

Now for the molecule whose BRM Max % Inhibition we want.
Task item: Record lookup: for BRM (Homo sapiens, UniProt P51531), what BRM Max % Inhibition belongs to C[C@@H]1CN(c2cc(F)cc(-c3csc(NC(=O)CNC(=O)c4ccc(Cl)c(C(C)(C)CO)c4)n3)c2)C[C@H](C)O1 [Compound 199] ?
Reply: >95%

* * *

ASSAYED_SYSTEM: BRM (Homo sapiens)
PROTOCOL_DESCRIPTION: ATPase catalytic activity assay of BRM (ADP-Glo)
Type: biochemical
EXPERIMENTAL_CONTEXT: read-out: BRM IC50 (μM)*
Field: IC50. Provide a value for each of the compounds that follow.

Quick request: IC50 for each listed item, please.
1. CC(=O)N(C)c1cc(-c2cccc(-c3csc(NC(=O)CNC(=O)c4cccc(C(C)(C)CN)c4)n3)c2)ccn1 [Compound 56]
2. C[C@@H]1CN(c2cccc(-c3csc(NC(=O)CNC(=O)c4ccc5c(c4)C(F)(C(F)F)COC5)n3)c2)C[C@H](C)O1 (stereo partly shown) [Compound 329]
3. C[C@@]1(C#N)COCc2ccc(C(=O)NCC(=O)Nc3nc(-c4cc(F)cc(C5CCO5)c4)cs3)cc21 (stereo partly shown) [Compound 316]
4. C[C@@]1(F)COCc2ccc(C(=O)NCC(=O)Nc3nc(-c4cccc(C(F)F)n4)cs3)cc21 [Compound 331]
5. CC(C)(CN)c1cccc(C(=O)NCC(=O)Nc2nc(-c3cccc(-c4cc(C#N)cc(C#N)c4)c3)cs2)c1 [Compound 50]
6. O=C(CNC(=O)c1ccc2c(c1)S(=O)(=O)CCCC2)Nc1nc(-c2cccc(-c3ccncc3)c2)cs1 [Compound 129]

Reply:
["0.1 to 1 µM", "< 0.1 µM", "< 0.1 µM", "< 0.1 µM", "0.1 to 1 µM", "< 0.1 µM"]

Task item: Record lookup: for BRM (Homo sapiens), what IC50 belongs to C[C@@]1(F)COCc2ccc(C(=O)NCC(=O)Nc3nc(-c4cccc(C(F)F)c4)cs3)cc21 [Compound 341] ?
Reply: < 0.1 µM

* * *

ASSAYED_SYSTEM: BRM (Homo sapiens)
PROTOCOL_DESCRIPTION: ATPase catalytic activity assay of BRM (ADP-Glo)
Type: biochemical
QUANTITY_MEASURED: BRM Max % Inhibition

Quick request: BRM Max % Inhibition for each listed item, please.
1. C[C@@H]1CN(c2cccc(-c3csc(NC(=O)CNC(=O)c4ccc5c(c4)[C@]4(CCC[C@@H]4O)CC5)n3)c2)C[C@H](C)O1 [Compound 189]
2. C[C@@H]1CN(c2cccc(-c3csc(NC(=O)CNC(=O)c4ccc5c(c4)CCCCO5)n3)n2)C[C@H](C)O1 [Compound 338]
3. Cn1ccc(-c2cccc(-c3csc(NC(=O)CNC(=O)c4ccc5c(c4)[C@](C)(CO)CC5)n3)n2)n1 [Compound 265]

Reply:
1. >90%
2. >90%
3. >70%

Quick request: BRM Max % Inhibition for each listed item, please.
1. COc1cc(F)cc(-c2csc(NC(=O)C(C)NC(=O)c3ccc4c(c3)[C@](C)(F)COC4)n2)c1 (stereo in doubt) [Compound 334]
2. CC(C)S(=O)(=O)c1cccc(C(=O)NCC(=O)Nc2nc(-c3cccc(-c4cccc(CN)c4)c3)cs2)c1 [Compound 31]
3. NCC1(c2cccc(C(=O)NCC(=O)Nc3nc(-c4cccc(-c5ccncc5)c4)cs3)c2)CC1 [Compound 72]

Reply:
1. >95%
2. >90%
3. >80%
